# credit: ChEMBL document CHEMBL1201862

test system: LOX IMVI; test: NCI tumour cell line growth inhibition, 48 h
The source made the active and inactive calls. No stated cut-off is given here; in the data, active = GI50 up to about 1.1 µM and inactive = higher.
METRIC NAME: GI50

| COMPOUND | METRIC NAME | READOUT VALUE |
| --- | --- | --- |
| CC(C)(C)c1ccc(O)c(C(O)c2ccccn2)c1 (stereo not given) | GI50 | 54.8 µM (inactive) |
| Nc1nnnn1CCO | GI50 | > 100 µM (inactive) |
| CCOC(=O)/C(=C/Nc1c(C)n(C)n(-c2ccccc2)c1=O)C(C)=O | GI50 | > 100 µM (inactive) |
| O=C1C2CCCC2N1Cc1ccccc1 (stereo not given) | GI50 | > 100 µM (inactive) |
| S=C1CC(c2ccccc2)Sc2cc(Cl)ccc2N1 (stereo not given) | GI50 | 4.09 µM (inactive) |
| CC1(C)N/C(=C\[N+](=O)[O-])C(C)(C)N1O | GI50 | > 10 µM (inactive) |
| CC1=[N+](C)CCN1C | GI50 | > 100 µM (inactive) |
| C=C(Nc1nc2ccc(C)cc2s1)C(=O)C(CC)C(=O)C(CC)CC1C(=O)NC(=O)NC1=O (stereo not given) | GI50 | > 100 µM (inactive) |
| CC[C@H](C)C1=C(OC(C)=O)[N@+]2([O-])Oc3ccc(-c4c(OC(C)=O)c(OC(C)=O)c(-c5ccc(OC(C)=O)cc5)c(OC(C)=O)c4OC(C)=O)cc3O[C@]2([C@@H](C)CC)C(=O)N1OC(C)=O | GI50 | 10.2 µM (inactive) |
| C/C=C(/C)C(=O)O[C@H]1C[C@@H]2[C@@H](O)c3occ(C)c3C[C@]2(C)[C@@H](C)C1 | GI50 | 17.5 µM (inactive) |

* * *

test system: SK-OV-3; experiment: NCI tumour cell line growth inhibition, 48 h
Calls of active or inactive are those of the source. Rule as the data show it: active = GI50 up to about 1.1 µM and inactive = higher.
Labels: active, inactive

| COMPOUND | LABEL CLASS |
| --- | --- |
| O=C(NCc1ccncc1)C1COc2cc(-c3cc(=O)c4ccccc4o3)ccc2O1 (stereo unspecified) | inactive |
| CC1N(C)C(=O)OC12CCN(CCCC(=O)c1ccc(F)cc1)CC2 (stereo unspecified) | inactive |
| O=C1CC2(CCC(O)(c3ccco3)C(C(=O)c3ccco3)C2)C(=O)c2ccccc2N1 (stereo unspecified) | inactive |
| O=C1Nc2ccccc2/C1=N/NC(=S)NCc1ccccn1 | inactive |
| Cc1sc2ncnc(NCCc3ccccc3)c2c1C | inactive |
| COc1ccc(C(c2cc3c(cc2O)OCO3)N2CCOCC2)cc1OC (stereo unspecified) | inactive |
| O=C1N[C@@H]([C@H](CCCCCO)OC(=O)c2ccccc2)CO1 | inactive |
| COC(=O)C(C)(Cc1ccc2c(c1)nnn2C(C)=O)NC(C)=O (stereo unspecified) | inactive |
| c1ccc(CNCCN2CCNCC2)nc1 | inactive |
| Nc1nc(N)c2c(CCc3ccc(C(=O)N[C@@H](CCC(=O)O)C(=O)O)cc3)ccnc2n1 | active |
| C[N+](C)(C)C(Cc1c[nH]c(=S)[nH]1)C(=O)O (stereo unspecified) | inactive |

* * *

Catalogue of GI50 readings, one per entry.
test system: RXF 393; test: NCI tumour cell line growth inhibition, 48 h
Activity calls are given as the source filed them. No stated cut-off is given here; in the data, active = GI50 up to about 1.1 µM and inactive = higher. Where a SMILES comes first, the peptide text is derived from it. [ ]: non-standard residue; d: D form. ξ: configuration not given here. ξThz(5,5-Me2) = CC1(C)SCNC1C(=O)O
METRIC NAME: GI50

| COMPOUND | METRIC NAME | READOUT VALUE |
| --- | --- | --- |
| CSCC[C@H](NC(=O)[C@H](CC(C)C)NC(=O)[C@H](Cc1c[nH]cn1)NC(=O)CNC(=O)C1N(C(=O)[C@@H](C)NC(=O)[C@H](Cc2c[nH]c3ccccc23)NC(=O)[C@H](CCC(N)=O)NC(=O)[C@@H](N)CC(N)=O)CSC1(C)C)C(N)=O (stereo partly drawn) (H-NQW[dA][ξThz(5,5-Me2)]GHLM-NH2) | GI50 | > 25 µM (inactive) |
| CC(C)(C)c1cc2c(O)c(c1)COCc1cc(C(C)(C)C)cc(c1O)COCc1cc(C(C)(C)C)cc(c1O)COC2 | GI50 | 32.4 µM (inactive) |
| CCCNC(C#N)c1ccc(OCCCCCCCCCCOc2ccc(C(C#N)NCCC)cc2)cc1 (stereo not drawn) | GI50 | 23.9 µM (inactive) |

* * *

system: HCT-15; experiment: NCI tumour cell line growth inhibition, 48 h

| MOLECULE | GI50 |
| --- | --- |
| CC1=[N+](C)CCN1C | > 100 µM |
| Cc1nc2c(n1CCCl)C(=O)c1ccccc1C2=O | 7.87 µM |
| Cc1ccc(O)c(Cc2nc3ccccc3nc2-c2cccc(Br)c2)c1 | 22.3 µM |
| CC1(CCOCc2ccccc2)NC(=O)NC1=O (configuration not stated) | > 100 µM |
| O=C(c1ccc(Cl)cc1)N1N=C(c2ccc(Cl)cc2)CC1(O)c1cc(F)c(Cl)cc1Cl (configuration not stated) | 15.5 µM |
| CCOC(=O)/C(=C\c1ccc(O)c(OC)c1)C(=O)c1ccccc1 | 8.75 µM |
| Nc1nc(SCC(=O)c2ccc(Br)cc2)c2nc[nH]c2n1 | 30.1 µM |
| COc1ccc(/C=C/c2ccnc3ccccc23)cc1OC | 15.2 µM |
| CCCCCCCCCCCCCCCCOCC(COP(=O)([O-])OCC[N+](C)(C)C)OCCCCCCCCCCCCCCCC (configuration not stated) | > 100 µM |
| O=C1Nc2ccccc2/C1=N/N1C(=O)/C(=C/c2ccccc2S)N=C1c1ccccc1 | 83 µM |
| O=C1/C(=C/c2ccc(OC(=O)c3ccccc3)cc2)CCC/C1=C\c1ccc(OC(=O)c2ccccc2)cc1 | > 100 µM |
| CC(C)(C)OC(=O)N(O)[C@@H]1C=C[C@H](n2cnc3c(N)ncnc32)C1 | > 100 µM |
| N#CC1=C(N)Nc2nc3ccccc3n2C1c1ccccc1 (configuration not stated) | 44.7 µM |
| CCCCCCCCCCCCOP(=O)(O)OP(=O)(O)OCC1OC(n2ccc(N)nc2=O)CC1O (configuration not stated) | > 100 µM |
| CC1=NN(c2nc(N)nc(-c3sccc3N)n2)C(C)(C)C1 | 59.4 µM |
| COc1c(C(=O)O)cccc1-c1cccc(C(=O)NCCN(CCNC(=O)c2cccc(-c3cccc(C(=O)O)c3OC)c2OC)CCNC(=O)c2cccc(-c3cccc(C(=O)O)c3OC)c2OC)c1OC | 65.2 µM |
| CC1(C)Cc2ccccc2C(C)(Cl)C(=O)N1 (configuration not stated) | > 10 µM |
| O=C(Cn1c2ccc(Br)cc2c2nc3ccccc3nc21)NNC(=S)NC1CCCCC1 | 12 µM |
| C=C1C(=O)OC2/C=C(\C)CC/C=C(/C)CC(OC(=O)/C(=C/CO)CO)C12 (configuration not stated) | 17.3 µM |
| CC1(C)N/C(=C\[N+](=O)[O-])C(C)(C)N1O | > 10 µM |
| CN(C)CC1CCC/C1=N\O (configuration not stated) | > 100 µM |
| O=C1NC(=O)C2(CCCCCC2)N1 | > 100 µM |

* * *

test system: RPMI-8226; test: NCI tumour cell line growth inhibition, 48 h
The source made the active and inactive calls. Rule as the data show it: active = GI50 up to about 1.1 µM and inactive = higher.
Labels: Yes = active, No = inactive

| COMPOUND | LABEL CLASS |
| --- | --- |
| COc1cc(C2SCCCCCCCCCCSC(c3ccc(O)c(OC)c3)SCCCCCCCCCCS2)ccc1O (stereo not given) | No |
| CCOc1ccc(C2=NN(CC)C(=O)C(C3C(=O)N(c4ccccc4)N=C3C)C2)cc1 (stereo not given) | No |
| CCN(CC)c1c(C)c(C(=O)OC)nn1-c1ccccc1 | No |
| Cn1cc(-c2cnc(-c3cn(C)c4ccccc34)cn2)c2ccccc21 | No |
| Cc1ccc(Sc2cc([N+](=O)[O-])cc(Sc3ccc(C)cc3)c2Sc2ccc(C)cc2)cc1 | No |
| O=C(CNC(c1ccccc1)(c1ccccc1)c1ccccc1)NC1CCCCC1NC(=O)CNC(c1ccccc1)(c1ccccc1)c1ccccc1 (stereo not given) | No |
| N#Cc1c(-c2ccc(Cl)cc2)c2c(n(C3OC(CO)C(O)C(O)C3O)c1=S)CCCC2 (stereo not given) | No |
| N#C/C(=C\c1ccccc1F)C(=O)c1ccccc1 | No |
| CCOC(=O)C(Cc1ccc(N(CCCl)CCCl)cc1)NC(=O)C(Cc1ccccc1)NC(C)=O (stereo not given) | Yes |
| COC(=O)c1nc(-c2ccc(Cl)c(Cl)c2)nc2ccc(Cl)cc12 | No |
